Molecular target: Syk kinase (Homo sapiens)
Construct: purchased
Assay: Syk kinase inhibition, Caliper LabChip off-chip mobility-shift kinase assay
Format: biochemical
Conditions: read-out: Syk Enzyme IC50
pIC50: −log10 of the molar value.
Reported pIC50 by item:
Property label: pIC50

| Compound | Property label | Number |
| --- | --- | --- |
| CCN1CCN(CCc2ccc(Nc3nc(-c4cnc(OC)nc4)cc4c(F)c[nH]c(=O)c34)cc2)CC1 [compound 439] | pIC50 | 6.32 |
| COc1cncc(-c2cc3cc[nH]c(=O)c3c(Nc3ccc(C4CCN(C5CC5)CC4)c(C)c3)n2)n1 [compound 210] | pIC50 | 7.06 |
| Cc1cc(-c2cc3cc[nH]c(=O)c3c(Nc3ccc([C@H]4CC[C@H](N5CCOCC5)CC4)cc3)n2)cnc1N [compound 100] | pIC50 | 6.71 |
| O=c1[nH]ccc2cc(Nc3ccc([N+](=O)[O-])cn3)nc(Nc3ccc(N4CCOCC4)cc3)c12 [compound 565] | pIC50 | 6.15 |
| CNC(=O)CN1CCC(c2ccc(Nc3nc(-c4cncc(OC)n4)cc4cc[nH]c(=O)c34)cc2C)CC1 [compound 135] | pIC50 | 7.32 |
| COCC(C)Nc1nc(Nc2cc(C)ccn2)cc2cc[nH]c(=O)c12 (centres unmarked) [compound 266] | pIC50 | 7.13 |
| CCOCCOc1cccc(Nc2nc(Nc3cc(C)ccn3)cc3ccn(C)c(=O)c23)c1 [compound 335] | pIC50 | 5.79 |
| CCn1ccc2cc(Nc3cnccn3)nc(N[C@@H](C)CO)c2c1=O [compound 353] | pIC50 | 7.46 |

----------
Molecular target: Syk kinase (Homo sapiens, UniProt P43405)
Construct: purchased
Assay: Syk kinase inhibition, Caliper LabChip off-chip mobility-shift kinase assay
Assay type: biochemical
Conditions: Caliper LabChip assay; read-out: Syk Enzyme IC50
pIC50: −log10 of the molar value.
Reported pIC50 by item:

| Molecule | Experimental target | pIC50 |
| --- | --- | --- |
| [2H]C(C)(O)c1cc(Nc2cc3ccn(CCO)c(=O)c3c(NC(C)(C)C)n2)ncc1F (stereo not shown) | Syk kinase (Homo sapiens, UniProt P43405) | 7.82 |
| CC(C)(C)Nc1nc(Nc2cc(C(C)(C)O)ncn2)cc2ccn(C[C@H](O)CO)c(=O)c12 | Syk kinase (Homo sapiens, UniProt P43405) | 7.27 |
| CC(C)(C)Nc1nc(Nc2cc(C(C)(F)F)ccn2)cc2ccn(CCO)c(=O)c12 | Syk kinase (Homo sapiens, UniProt P43405) | 7.48 |
| Cc1cnccc1-c1ccnc(Nc2cc3ccn(CCO)c(=O)c3c(NC(C)(C)C)n2)c1 | Syk kinase (Homo sapiens, UniProt P43405) | 6.95 |

----------
Target: Syk kinase (Homo sapiens, UniProt P43405)
Construct: purchased
Test: Syk kinase inhibition, Caliper LabChip off-chip mobility-shift kinase assay
Assay type: biochemical
Conditions: Caliper LabChip assay; read-out: Syk Enzyme IC50
pIC50: −log10 of the molar value.
Could you label it criterion met if measured pIC50 is 7 or higher, and criterion not met otherwise?

| Molecular string | Category label |
| --- | --- |
| CC(C)(C)Nc1nc(Nc2cc(CO)ccn2)cc2ccn(CC(=O)O)c(=O)c12 | criterion met |
| CC(C)(C)Nc1nc(-c2cnc(N)nc2)cc2ccn(CC(N)=O)c(=O)c12 | criterion met |
| CC(C)(C)Nc1nc(Nc2cc(C(C)(C)C)ccn2)cc2ccn(CCO)c(=O)c12 | criterion not met |
| CCn1ccc2cc(Nc3cc(C)ccn3)nc(N[C@@H]3CCC[C@H]3O)c2c1=O | criterion not met |
| CC(C)(C)Nc1nc(Nc2cc(C(C)(C)O)ncn2)cc2ccn(C(CO)CO)c(=O)c12 | criterion met |
| [2H][C@]1(O)CC[C@@H](Nc2nc(Nc3cnccn3)cc3ccn(CC)c(=O)c23)CC1 | criterion met |

----------
Target: Syk kinase (Homo sapiens)
Construct: purchased
Test: Syk kinase inhibition, Caliper LabChip off-chip mobility-shift kinase assay
Format: biochemical
Settings: read-out: Syk Enzyme IC50
pIC50: −log10 of the molar value.
Property label: pIC50

| Molecular string | Number |
| --- | --- |
| CCCc1cc2cc[nH]c(=O)c2c(Nc2ccc(C3CCN(C4CC4)CC3)c(C)c2)n1 | 6.25 |
| Cn1ccc2cc(Nc3ccccn3)nc(N)c2c1=O | 5.49 |
| CCc1ccnc(Nc2cc3cc[nH]c(=O)c3c(Nc3ccc(C4CCN(C5CC5)CC4)c(C)c3)n2)c1 | 7.48 |
| CCN1CCN(CCc2ccc(Nc3nc(-c4cnn(CC(C)C)c4)cc4cc[nH]c(=O)c34)cc2)CC1 | 6.91 |
| Cc1ccnc(Nc2cc3ccn(C)c(=O)c3c(Nc3ccc(C4CCN(CCS(C)(=O)=O)CC4)cc3)n2)c1 | 6.30 |
| Cc1ccnc(Nc2cc3cc[nH]c(=O)c3c(NCC3CC3)n2)c1 | 6.70 |
| CCn1ccc2cc(Nc3cc(C)c(F)cn3)nc(N[C@H]3CC[C@@H](O)CC3)c2c1=O | 7.05 |
| COCCNC(=O)c1ccc(Nc2nc(-c3cncc(OC)n3)cc3cc[nH]c(=O)c23)cc1 | 6.77 |

----------
Biological target: Syk kinase (Homo sapiens, UniProt P43405)
Construct: purchased
Assay: Syk kinase inhibition, Caliper LabChip off-chip mobility-shift kinase assay
Type: biochemical
Conditions: read-out: Syk Enzyme IC50

| Compound | Reading unit | IC50 |
| --- | --- | --- |
| COc1cncc(-c2cc3cc[nH]c(=O)c3c(Nc3ccc(C4CN(CCO)C4)cc3)n2)n1 [compound 147] | nM | 4 |
| Cc1ccc(-c2cc3cc[nH]c(=O)c3c(Nc3ccc(CCN4CCCN(C)CC4)cc3)n2)cn1 [compound 437] | nM | 102 |
| CC(C)Nc1nc(Nc2cnccn2)cc2cc[nH]c(=O)c12 [compound 462] | nM | 30 |
| Cn1cc(-c2cc3cc[nH]c(=O)c3c(Nc3ccc([C@H]4CC[C@H](N5CCOCC5)CC4)cc3)n2)cn1 [compound 99] | nM | 168 |
| CCCc1ccnc(Nc2cc3ccn(CC)c(=O)c3c(NC(C)C)n2)c1 [compound 306] | nM | 612 |
| O=c1[nH]ccc2cc(Nc3ccccn3)nc(N3CCOCC3)c12 [compound 286] | nM | 951 |
| COCCn1ccc2cc(Nc3cnccn3)nc(NC(C)C)c2c1=O [compound 319] | nM | 137 |
| COc1cncc(-c2cc3cc[nH]c(=O)c3c(Nc3ccc(C4CCN(C5CCCC5)CC4)c(C)c3)n2)n1 [compound 62] | nM | 11 |
| CO/N=C(\C)c1cc2cc[nH]c(=O)c2c(Nc2ccc(C3CCN(C4CC4)CC3)c(C)c2)n1 [compound 237] | nM | 407 |
| COc1cncc(-c2cc3cc[nH]c(=O)c3c(Nc3ccc(C4CCN(CCC(=O)N5CCOCC5)CC4)c(C)c3)n2)n1 [compound 162] | nM | 32 |
| CNC(=O)c1ccc(Nc2nc(Nc3cc(C)ccn3)cc3ccn(C)c(=O)c23)cc1 [compound 342] | nM | 222 |
| CC(CO)Nc1nc(Nc2ccccn2)cc2cc[nH]c(=O)c12 (centres unmarked) [compound 274] | nM | 55 |
| O=c1[nH]ccc2cc(C3=CCSCC3)nc(Nc3ccc(N4CCOCC4)cc3)c12 [compound 14] | nM | 809 |
| CCc1ccnc(Nc2cc3ccn(CC)c(=O)c3c(NC(C)C)n2)c1 [compound 304] | nM | 384 |
| O=c1c2c(N[C@H]3CC[C@@H](O)CC3)nc(Nc3cnccn3)cc2ccn1CCO [compound 376] | nM | 6 |
| CC(C)(C)Nc1nc(Nc2cnccn2)cc2ccn(CCO)c(=O)c12 [compound 459] | nM | 52 |
| O=c1[nH]ccc2cc(-c3cncnc3)nc(Nc3ccc([C@H]4CC[C@@H](N5CCOCC5)CC4)cc3)c12 [compound 10] | nM | 266 |
| CC(C)C(C)Nc1nc(Nc2ccccn2)cc2cc[nH]c(=O)c12 (centres unmarked) [compound 278] | nM | 2210 |
| O=c1[nH]ccc2cc(Nc3ccc(Cl)cn3)nc(Nc3ccc(N4CCOCC4)cc3)c12 [compound 526] | nM | 803 |
| Cc1ccnc(Nc2cc3cc[nH]c(=O)c3c(NC(C)CO)n2)c1 (centres unmarked) [compound 265] | nM | 18 |
| COc1cncc(-c2cc3cc[nH]c(=O)c3c(Nc3ccc(C4CCN(CC(=O)N(C)OC)CC4)c(C)c3)n2)n1 [compound 176] | nM | 41 |
| COc1cncc(-c2cc3cc[nH]c(=O)c3c(Nc3ccc(C4CCN(CCC#N)CC4)c(C)c3)n2)n1 [compound 128] | nM | 79 |
| CCCNC(=O)c1ccc(Nc2nc(Nc3cc(C)ccn3)cc3ccn(C)c(=O)c23)cc1 [compound 363] | nM | 551 |
| C[C@@H]1CN(c2ccc(Nc3nc(/C=C/C(=O)O)cc4cc[nH]c(=O)c34)cn2)CCO1 [compound 241] | nM | 208 |
| COc1cncc(-c2cc3cc[nH]c(=O)c3c(Nc3ccc(C4CCN(CC5CC5(F)F)CC4)c(C)c3)n2)n1 (centres unmarked) [compound 78] | nM | 129 |
| Cn1ccc2cc(Nc3cnccn3)nc(NC(C)(C)C)c2c1=O [compound 466] | nM | 120 |
| Cc1ccc(-c2cc3cc[nH]c(=O)c3c(Nc3ccc(C4CCN(CCCF)CC4)c(C)c3)n2)cn1 [compound 46] | nM | 37 |
| CC(C)Nc1nc(Nc2ccc(C#N)cn2)cc2cc[nH]c(=O)c12 [compound 570] | nM | 377 |
| Cc1ccnc(Nc2cc3ccn(C)c(=O)c3c(NC(C)(C)CO)n2)c1 [compound 499] | nM | 31 |
| Cc1ccc(Nc2cc3cc[nH]c(=O)c3c(Nc3ccc(N4CCO[C@H](C)C4)c(C)c3)n2)nc1 [compound 582] | nM | 2220 |
| COc1cncc(-c2cc3cc[nH]c(=O)c3c(Nc3ccc(C4CCN(C(C)C(=O)N(C)C)CC4)c(C)c3)n2)n1 (centres unmarked) [compound 170] | nM | 6 |
| Cc1ccnc(Nc2cc3cc[nH]c(=O)c3c(NC[C@@H](C)O)n2)c1 [compound 513] | nM | 70 |
